Test system: MOLT-4
assay.text: NCI tumour cell line growth inhibition, 48 h
Active and inactive are the calls of the source. Cut-off read from the data, not from the text of the source: active = GI50 up to about 1.1 µM and inactive = higher.
Record form. Attribute: GI50. Fill in for each entry.

// query GI50 value for entry COc1ccc(/C(=N/O)c2ccccc2-c2nc3ccccc3c(=O)n2-c2ccc(S(=O)(=O)Nc3ncccn3)cc2)cc1C 12.2 µM (inactive)

Same thing, different compound: O=C(c1cc2c(C(F)(F)F)onc2c2ccccc12)C(F)(F)F 1.15 µM (inactive)

Same thing, different compound: CC1=C(O)C(=O)C=C2C1=CC=C1[C@@]2(C)CC[C@@]2(C)[C@@H]3C[C@](C)(C(=O)O)CC[C@]3(C)CC[C@]12C 0.0124 µM (active)

Same thing, different compound: CCCCCCCCC#CCCCCCCC(F)C(=O)O (stereo not drawn) > 100 µM (inactive)

Same thing, different compound: O=C(/C=C/c1ccc(O)c(O)c1)OCCc1ccc2ccccc2c1 2.2 µM (inactive)

Same thing, different compound: COc1cc([C@@H]2c3cc4c(cc3[C@@H](OC3OC5COC(C)OC5C(O)C3O)[C@H]3COC(=O)[C@H]23)OCO4)cc(OC)c1O (stereo partly drawn) 0.547 µM (active)

Same thing, different compound: c1csc(-c2csc(-c3ccsc3)c2)c1 62.4 µM (inactive)

Same thing, different compound: COc1ccc(C2C3CCc4ccccc4C3=NN2S(=O)(=O)c2ccc(/C=C/C(=O)O)cc2)cc1 (stereo not drawn) 3.61 µM (inactive)

Same thing, different compound: CCC1C(=O)OCc2c1cc1n(c2=O)Cc2ccccc2-1 (stereo not drawn) > 100 µM (inactive)

Same thing, different compound: C=C(CCOC)CCC1CCCCC(CN(C)C)C1=O (stereo not drawn) > 100 µM (inactive)

Same thing, different compound: CCOc1ccccc1NC(=O)CC1C(=O)Nc2ccccc2[S+]1[O-] (stereo not drawn) 10.5 µM (inactive)

Same thing, different compound: CC(C)(C)NC1=NC(C(F)(F)F)(C(F)(F)F)NC(=O)N1 30.2 µM (inactive)

Same thing, different compound: Cc1n[nH]c(=O)c2cc(-c3ccccc3)[nH]c12 17.6 µM (inactive)

====

System: Hs-578T
assay.text: NCI tumour cell line growth inhibition, 48 h
The source made the active and inactive calls. No stated cut-off is given here; in the data, active = GI50 up to about 1.1 µM and inactive = higher.
// one of active, inactive, no free text

What classification did COc1ccc([C@H](NC(=O)c2ccccc2)[C@@H](O)C(=O)O[C@H]2C[C@@]3(O)C(OC(=O)c4ccccc4)C4[C@](C)(C(=O)[C@H](OC(C)=O)C(=C2C)C3(C)C)[C@@H](O)C[C@H]2OC[C@@]42OC(C)=O)cc1 (stereo partly specified) end up with in this test? active

Same thing, different compound: Fc1ccc(C(OCCN2CCN(CCCCl)CC2)c2ccc(F)cc2)cc1 inactive

Same thing, different compound: CCCCCCCCCCCCCCCC(=O)OCC(C[As](=O)(O)O)OC(=O)CCCCCCCCCCCCCCC (stereo unspecified) inactive

Same thing, different compound: CN1CCN(C2=CC(=O)c3c(O)ccc(O)c3C2=O)CC1 inactive

Same thing, different compound: CC(=O)Oc1cc(OC(C)=O)c2c(c1C)CC[C@@H]1[C@@H]2CC[C@]2(C)[C@@H](OC(C)=O)CC[C@@H]12 inactive

Same thing, different compound: CCOC(=O)Nn1c(C)nnc1-c1ccccc1 inactive

Same thing, different compound: C(=C\Nc1ccc(-c2ccccc2)cc1)/C=N/c1ccc(-c2ccccc2)cc1 inactive

Same thing, different compound: NC(=O)NCCSC1CCCCC1O (stereo unspecified) inactive

Same thing, different compound: Nc1nc(-c2ccccc2/N=N/N2CCCC2)nc2ccccc12 inactive

Same thing, different compound: COc1cc(-c2oc3ccccc3c(=O)c2O)cc(OC)c1OC inactive

Same thing, different compound: N#Cc1nc(CCN2C(=O)c3ccccc3C2=O)oc1N inactive

Same thing, different compound: Cc1ccc(S(=O)(=O)NC(=O)NCC(=O)O)cc1 inactive

Same thing, different compound: CCCCC1Cc2cc(OC)ccc2-c2n1c1cc(OC)ccc1[n+]2C.CCCCC1Cc2cc(OC)ccc2-c2n1c1ccc(OC)cc1[n+]2C (stereo unspecified) inactive

Same thing, different compound: N/C(=N\O)N/N=C/c1cc(Br)cc(Br)c1O inactive

Same thing, different compound: CC(=O)OC[C@H]1On2nnnc2[C@H](OC(C)=O)[C@@H](OC(C)=O)[C@@H]1OC(C)=O inactive

Same thing, different compound: CN(C)CCNC(=O)c1cccc2c(NCCN(C)C)c3ccccc3nc12 inactive

Same thing, different compound: O=C1/C(=C2\SCC(=O)N2c2ccccc2)SC(=S)N1c1ccccc1 inactive

Same thing, different compound: CC(=O)Oc1ccc2c(c1)c1c(=O)oc(N(C)C)nc1n2Cc1ccccc1 inactive

Same thing, different compound: COC1(OC)CC(CO)(CNc2nc(N)nc(Cl)c2C=O)C1 inactive

Same thing, different compound: Cc1ccsc1/C=N/Nc1cc(C)c2cccc(C)c2n1 inactive

Same thing, different compound: S=C1CSc2c(ccc3ccccc23)N1 inactive
